- assayInfo: Intrinsic clearance in human liver microsomes
- Type: ADME, Microsome
- conditionParameters: read-out: CLH
assayReadout: microsomal CLint (µL/min/mg)
Unit µL/min/mg implied. Number only.

Prompt: Return value of microsomal CLint for input Cc1cc(C)c(CN2CCc3c(Br)cc(-c4c(C)nnn4C)c(Cl)c3C2=O)c(=O)[nH]1 , no commentary.
Response: 27.8

* * *

Recorded measurements of solubility, one per entry
- assayInfo: Apparent solubility of the compound
- Type: physicochemical
Unit µM implied. Number only.

Prompt: Return value of solubility for input Cc1cc(C)c(CN2CCc3c(Cl)cc(-c4c(C)noc4C)c(Cl)c3C2=O)c(=O)[nH]1 , no commentary.
Response: 140

Continuing:
Prompt: Return value of solubility for input Cc1cc(C)c(CN2CCc3c(Br)cc(-c4c(C)nnn4C)c(Cl)c3C2=O)c(=O)[nH]1 , no commentary.
Response: 338
